Experiment: in vivo
Settings: mouse, ip, DDY mice, single dose, i.p., dissolved in dimethylsulfoxide, day 21, read-out: LD50 i.p.
# maps each entry to its LD50 at 504 h
Assay metric: LD50 at 504 h

Smiles representation	Result
CCOc1cc(O)c(C(=O)C=Cc2ccc(C)o2)c(OC)c1	> 500 mg/kg
COc1ccc(/C=C/C(=O)c2c(OC)cc(OC)cc2OC(=O)c2cnccn2)cc1	> 500 mg/kg
COc1ccc(/C=C/C(=O)c2c(OC)cc(OC)cc2OC(=O)CCCC(=O)O)cc1	> 500 mg/kg
CCC(=O)Oc1cc(OC)cc(OC(C)C)c1C(=O)/C=C/c1ccc(OC)cc1	> 500 mg/kg
COc1cc(O)c(C(=O)/C=C/c2ccc(OC)c(OC)c2)c(OC)c1	> 500 mg/kg
CCOc1ccc(/C=C/C(=O)c2c(O)cc(OC)cc2OCC)cc1	> 500 mg/kg
CCCOc1ccc(/C=C/C(=O)c2c(O)cc(OC)cc2OC)cc1	> 500 mg/kg
CCOc1cc(OC)cc(OC(=O)CC)c1C(=O)/C=C/c1ccc(OC)cc1	> 1000 mg/kg
COc1cc(O)c(C(=O)/C=C/c2cccc(OC)c2O)c(OC)c1	> 500 mg/kg
C=CCOc1ccc(/C=C/C(=O)c2c(O)cc(OC)cc2OC)cc1	> 500 mg/kg
CCC(=O)Oc1cc(OC)cc(OC)c1C(=O)/C=C/c1ccc(SC)cc1	> 1000 mg/kg
CCOc1ccc(/C=C/C(=O)c2c(O)cc(OCC)cc2OC)cc1	> 500 mg/kg
CCCOc1ccc(/C=C/C(=O)c2c(OC)cc(OC)cc2OC(=O)CC)cc1	> 1000 mg/kg
CCOc1ccc(/C=C/C(=O)c2c(OCC)cc(OCC)cc2OC(=O)CC)cc1	> 1000 mg/kg
CCC(=O)Oc1cc(OC)cc(OC)c1C(=O)C=Cc1cccs1	> 1000 mg/kg
CCCOc1cc(OC)cc(O)c1C(=O)/C=C/c1ccc(OC)cc1	> 500 mg/kg
COc1cc(O)c(C(=O)C=Cc2ccc(C)o2)c(OC)c1	> 500 mg/kg
COc1cc(O)c(C(=O)C=Cc2cccn2C)c(OC)c1	> 500 mg/kg
CCC(=O)Oc1cc(OC)cc(OC)c1C(=O)C=Cc1ccc2c(c1)OCO2	> 500 mg/kg
COc1ccc(/C=C/C(=O)c2c(O)cc(OC)cc2OC(C)C)cc1	> 500 mg/kg
COc1cc(O)c(C(=O)/C=C/c2ccc(N(C)C)cc2)c(OC)c1	> 1000 mg/kg
